Assay: TOR pathway RTG branch CIT2 reporter changes – S. cerevisiae, GFP fusion, multiplex flow cytometry, primary screen (AID 1870);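 note: barcoded CIT2-GFP strain pooled with four other GFP strains with rapamycin as positive control; median GFP fluorescence per well over plate mean of DMSO wells so 100% = DMSO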
Conditions: S. cerevisiae CIT2-GFP expression, 3 h, at 10 µM, stronger effect = higher value
PROPERTY MEASURED: percent response of DMSO control (%)
Give your result in % as a bare value.

>  <COMPOUND>
CCOC(=O)c1ccc(NC(=S)NCCc2ccccc2F)cc1

>  <EXPERIMENTAL RESULT>
101

$$$$

Consider the compound "C[C@@H]1C[C@H]2[C@@H]3C[C@H](F)C4=CC(=O)C=C[C@]4(C)[C@@]3(F)[C@@H](O)C[C@]2(C)[C@@]1(O)C(=O)COC(=O)C(C)(C)C" and give its measured percent response of DMSO control.
99.3

Consider the compound "CCN(CC)c1ccc([C@H]2[C@@H]3CCCC[C@]3(O)CCN2CC(=O)NCc2ccco2)cc1" and give its measured percent response of DMSO control.
91

Consider the compound "CC(C)NS(=O)(=O)c1ccc(OCC(=O)Nc2cccc(F)c2)cc1" and give its measured percent response of DMSO control.
106

---

Target: AP-2 complex subunit beta (Homo sapiens) (UniProt P63010)
Sequence (P63010 whole entry, looked up, one chain of several): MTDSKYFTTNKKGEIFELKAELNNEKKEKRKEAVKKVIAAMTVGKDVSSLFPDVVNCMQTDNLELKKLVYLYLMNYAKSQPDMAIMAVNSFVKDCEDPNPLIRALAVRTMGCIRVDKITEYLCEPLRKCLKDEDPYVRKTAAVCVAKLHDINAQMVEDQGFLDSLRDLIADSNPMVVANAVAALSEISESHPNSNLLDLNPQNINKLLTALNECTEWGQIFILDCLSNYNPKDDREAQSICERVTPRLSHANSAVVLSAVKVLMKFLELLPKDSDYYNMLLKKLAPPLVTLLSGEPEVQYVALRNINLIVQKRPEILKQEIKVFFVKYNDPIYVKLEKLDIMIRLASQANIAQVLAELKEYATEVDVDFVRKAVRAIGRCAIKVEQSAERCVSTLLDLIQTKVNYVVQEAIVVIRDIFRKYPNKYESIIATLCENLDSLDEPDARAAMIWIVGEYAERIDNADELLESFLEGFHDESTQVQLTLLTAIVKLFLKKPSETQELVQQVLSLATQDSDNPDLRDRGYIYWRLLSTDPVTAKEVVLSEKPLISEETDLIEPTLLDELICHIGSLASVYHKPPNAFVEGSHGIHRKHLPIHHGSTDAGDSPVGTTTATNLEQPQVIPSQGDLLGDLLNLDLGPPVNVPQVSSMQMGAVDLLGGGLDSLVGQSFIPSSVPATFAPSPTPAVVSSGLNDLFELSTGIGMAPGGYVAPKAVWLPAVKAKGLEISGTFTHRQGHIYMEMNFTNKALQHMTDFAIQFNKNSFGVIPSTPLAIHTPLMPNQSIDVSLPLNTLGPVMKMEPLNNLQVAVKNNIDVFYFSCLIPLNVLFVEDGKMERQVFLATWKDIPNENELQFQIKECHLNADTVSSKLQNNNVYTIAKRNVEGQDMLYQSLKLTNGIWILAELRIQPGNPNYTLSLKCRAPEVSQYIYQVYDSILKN
Assay: beta-arrestin/AP2 interaction blockers – biochemical, validation set, GST-AP2 beads, flow cytometry, pilot screen (AID 504541);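 note: AP2 carries R879A mutation and is captured from E. coli lysate; bead-bound FITC arrestin peptide fluorescence measuring arrestin peptide binding to AP2; 0% = DMSO wells and 100% = excess unlabeled arrestin peptide control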
Details: FITC arrestin peptide, at 10 µM, stronger effect = higher value, AP2 beta2 appendage fragment, R879A mutant
Active and inactive are the calls of the source.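 How the source made its calls: active means inhibition above 54%, about 3 SD of non-fluorescent compounds; inactive means the rest.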
PROPERTY MEASURED: inhibition

These recorded examples may help you get a feel for the data.
>  <COMPOUND>
O=C1CC(c2ccc(OCCCCCOc3ccc(C4CC(=O)NC4=O)cc3)cc2)C(=O)N1 (stereo unspecified)

>  <SYSTEM TESTED>
AP-2 complex subunit beta (Homo sapiens) (UniProt P63010)

>  <PROPERTY MEASURED>
inhibition

>  <EXPERIMENTAL RESULT>
-7.1% (inactive)

$$$$
>  <COMPOUND>
CC(C)(C)NCC(O)COc1ccccc1C(=O)CCc1ccccc1 (stereo unspecified)

>  <SYSTEM TESTED>
AP-2 complex subunit beta (Homo sapiens) (UniProt P63010)

>  <PROPERTY MEASURED>
inhibition

>  <EXPERIMENTAL RESULT>
-9.53% (inactive)

$$$$
>  <COMPOUND>
COc1ccc(/C=C\c2nc(=O)c3ccccc3o2)cc1

>  <SYSTEM TESTED>
AP-2 complex subunit beta (Homo sapiens) (UniProt P63010)

>  <PROPERTY MEASURED>
inhibition

>  <EXPERIMENTAL RESULT>
0.71% (inactive)

$$$$

Consider the compound "O=C(O)c1cc2cc(Cl)cc(Cl)c2oc1=O" and give its measured inhibition.
8.6% (inactive)

Consider the compound CCOC(=O)N1c2ccccc2C=CC1OCC (stereo unspecified) and give its measured inhibition.
-6.59% (inactive)

Consider the compound "O=c1[nH]cnc2[nH]ncc12" and give its measured inhibition.
2.53% (inactive)

---

Target: Beta-adrenergic receptor kinase 1 (Homo sapiens)
Assay: GRK2 binders displacing RNA aptamer, biochemical, validation, human GRK2, bead flow cytometry (AID 488806)
Details: bead-bound GRK2, FAM-aptamer displacement, at 10 µM, stronger effect = higher value
The entries below come with measured aptamer binding inhibition values attached.
Give your result in % as a bare value.

These recorded examples may help you get a feel for the data.
>  <MOLECULE>
CCCCCC(=O)O[C@]1(C(C)=O)CC[C@H]2[C@@H]3CCC4=CC(=O)CC[C@]4(C)[C@H]3CC[C@@]21C

>  <RESULT UNIT>
%

>  <EXPERIMENTAL RESULT>
0

$$$$
>  <MOLECULE>
CC(C)[C@H]1CN(C)CCN1Cc1cn(C)nc1-c1cccc(Cl)c1

>  <RESULT UNIT>
%

>  <EXPERIMENTAL RESULT>
-1

$$$$
>  <MOLECULE>
O=C(Nc1nc2ccccc2s1)c1ccc(F)cc1

>  <RESULT UNIT>
%

>  <EXPERIMENTAL RESULT>
3

$$$$
>  <MOLECULE>
Cc1nnc(SCC2=C(C(=O)O)N3C(=O)[C@@H](NC(=O)Cn4cnnn4)[C@H]3SC2)s1

>  <RESULT UNIT>
%

>  <EXPERIMENTAL RESULT>
-1

$$$$
>  <MOLECULE>
C=C(C)C(=O)Nc1ccc(NC(C)C)cc1

>  <RESULT UNIT>
%

>  <EXPERIMENTAL RESULT>
4

$$$$
>  <MOLECULE>
CC(=O)O[C@]1(C(C)=O)CC[C@H]2[C@@H]3C[C@H](C)C4=CC(=O)CC[C@]4(C)[C@H]3CC[C@@]21C

>  <RESULT UNIT>
%

>  <EXPERIMENTAL RESULT>
-1

$$$$

Consider the molecule "COc1ccc2c(c1)[N+](C)(C)C(C)(C)C=C2C" and give its measured aptamer binding inhibition.
2

Consider the molecule "Fc1ccc(C(c2ccc(F)cc2)N2CCN(C/C=C/c3ccccc3)CC2)cc1" and give its measured aptamer binding inhibition.
4

Consider the molecule CCN(CC)CC#CCOC(=O)C(O)(c1ccccc1)C1CCCCC1 (stereo unspecified) and give its measured aptamer binding inhibition.
4

Consider the molecule "CCCCNc1ccc(C(=O)OCCN(C)C)cc1" and give its measured aptamer binding inhibition.
-1

Consider the molecule "Oc1[nH]c2ccccc2c1C1=NCCCC1" and give its measured aptamer binding inhibition.
8

Consider the molecule "COc1ccc(C(=O)Oc2ccc3c(C)cc(=O)oc3c2C(C)=O)cc1" and give its measured aptamer binding inhibition.
-1

---

The entries below come with measured GTP binding, percent of control values attached.
Target: GTPase HRas (Homo sapiens) (UniProt P01112)
Sequence (P01112 whole entry, looked up): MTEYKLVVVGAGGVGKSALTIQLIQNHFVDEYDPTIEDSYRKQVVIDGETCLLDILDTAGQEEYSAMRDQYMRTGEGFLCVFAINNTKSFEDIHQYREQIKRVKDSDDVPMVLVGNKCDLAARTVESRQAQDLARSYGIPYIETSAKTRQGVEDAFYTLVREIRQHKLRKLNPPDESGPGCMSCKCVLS
Assay: Ras wt fluorescent GTP loading blockade – biochemical, wildtype, multiplex bead flow cytometry, dose response (AID 1335)
Settings: bead-based flow cytometry, Bodipy-GTP binding to GST-Ras; at 100 µM (top of the series) unless noted
Give your result in % as a bare value.

These recorded examples may help you get a feel for the data.
>  <MOLECULE>
CCn1c(SCC(=O)O)nnc1-c1cc2c(C)nn(-c3ccccc3)c2s1

>  <EXPERIMENTAL RESULT>
64.4

$$$$
>  <MOLECULE>
O=c1c2ccccc2nc2c3ccccc3cnn12

>  <EXPERIMENTAL RESULT>
88.4

$$$$

Consider the molecule "CCOc1ccc(-n2c(C)nc3cc(C(=O)NCc4ccc5c(c4)OCO5)ccc32)cc1" and give its measured GTP binding, percent of control.
62.5

---

Molecular target: Cell division control protein 42 homolog (Homo sapiens)
Assay: inhibition of fluorescent GTP binding to constitutively active Cdc42 – biochemical, multiplex bead flow cytometry, Bodipy-FL-GTP, dose response (AID 1333)
Conditions: bead-based flow cytometry; series mostly up to 100 µM
Entries with a potency or affinity are not part of this list. Activity calls are given as the source filed them.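 How the source made its calls: active means fitted half-maximal concentration within the tested dose range, moderate curve steepness, a statistically real signal drop, and little compound fluorescence or tag-binding interference; inactive means the rest.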
PROPERTY MEASURED: outcome

These recorded examples may help you get a feel for the data.
>  <COMPOUND>
O=C(O)CSc1ccc2nnc(-c3cccnc3)n2n1

>  <EXPERIMENTAL RESULT>
inactive

$$$$
>  <COMPOUND>
Cc1nc2sccn2c1-c1nc(-c2cc3ccccc3o2)cs1

>  <EXPERIMENTAL RESULT>
inactive

$$$$
>  <COMPOUND>
Oc1ccc(NC(=S)N=Nc2c(O)[nH]c3ccccc23)cc1

>  <EXPERIMENTAL RESULT>
inactive

$$$$
>  <COMPOUND>
Cc1cc2nc3c(=O)[nH]c(=O)[nH]c3nc2c([N+](=O)[O-])c1N

>  <EXPERIMENTAL RESULT>
inactive

$$$$
>  <COMPOUND>
O=S(=O)(CC(CN1CCOCC1)N1CCOCC1)c1ccccc1 (centres undefined)

>  <EXPERIMENTAL RESULT>
inactive

$$$$
>  <COMPOUND>
COc1cc(NC(=O)c2cccs2)c(OC)cc1NC(=O)CCC(=O)Nc1cccc2ncccc12

>  <EXPERIMENTAL RESULT>
inactive

$$$$
>  <COMPOUND>
O=C(OCC1O[C@@H](OC(=O)c2cc(O)c(O)c(O)c2)[C@@H](OC(=O)c2cc(O)c(O)c(O)c2)[C@@H](OC(=O)c2cc(O)c(O)c(O)c2)[C@@H]1OC(=O)c1cc(O)c(O)c(O)c1)c1cc(O)c(O)c(O)c1 (some centres undefined)

>  <EXPERIMENTAL RESULT>
inactive

$$$$
>  <COMPOUND>
COc1cc2c(cc1OC)-c1cc(NC3CCCCCC3)nc(=O)n1CC2

>  <EXPERIMENTAL RESULT>
inactive

$$$$

// fetch Cell division control protein 42 homolog (Homo sapiens) outcome for "COc1ccc(-c2nn3c(-c4ccco4)nnc3s2)cc1OC"
inactive

---

The entries below come with measured percent of DMSO control GFP values attached.
Experiment: rapamycin-like changes in RPL19A-GFP expression – cell-based, S. cerevisiae, multiplex flow cytometry, primary screen (AID 1862);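 note: lower values mimic rapamycin by blocking the RPL19A rise seen in DMSO cells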
Conditions: S. cerevisiae RPL19A-GFP strain, flow cytometry fluorescence, 3 h; at 10 µM; stronger effect = lower value
Records with an inconclusive call do not appear.
Give your result in % as a bare value.

These recorded examples may help you get a feel for the data.
>  <MOLECULE>
CC1(C)CC(NCc2ccccc2)CCO1 (stereo unspecified)

>  <RESULT UNIT>
%

>  <percent of DMSO control GFP>
103

$$$$
>  <MOLECULE>
NC(=O)[C@@H]1[C@@H]2C(=O)N(c3ccc(F)cc3)C(=O)[C@@H]2[C@H]2C=Cc3ccccc3N21

>  <RESULT UNIT>
%

>  <percent of DMSO control GFP>
104

$$$$
>  <MOLECULE>
COc1ccc(/C=C\c2cc(OC)c(OC)cc2CC[N+](C)(C)C)cc1OC

>  <RESULT UNIT>
%

>  <percent of DMSO control GFP>
96.3

$$$$

Consider the molecule CC1(c2ccccc2)CC(C)(C)N2C(=O)C(=O)c3cccc1c32 (stereo unspecified) and give its measured percent of DMSO control GFP.
108

Consider the molecule "CC(C)Oc1ccc2c(=O)c(-c3ccccc3)coc2c1" and give its measured percent of DMSO control GFP.
86.5

Consider the molecule COc1ccc(/C=C/C(=O)NC(=S)NN2CCCCC2c2cccnc2)cc1 (stereo unspecified) and give its measured percent of DMSO control GFP.
106
